Reported Potency values follow for various compounds
assay: qHTS of pediatric cancer cell lines to identify multiple opportunities for drug repurposing: Primary screen for DAOY cells (AID 1347090); settings: DAOY medulloblastoma viability, CellTiter-Glo luminescence, 48 h; series mostly up to 46 µM; note: potency is the fitted concentration of half-maximal effect; nearly all actives have a fitted effect of over 55% in size
Inconclusive results are not listed. Activity calls are given as the source filed them. Calls come from the whole dose curve; as a rule, active = well fitted cell-killing curve with a large enough effect; inconclusive = small, poorly fitted or top-dose-only effect; inactive = flat fitted curve, though single readings scatter.
endpoint: Potency

[[record]]
compound_structure_string = "C[C@@]12O[C@@H](C[C@]1(O)CO)n1c3ccccc3c3c4c(c5c6ccccc6n2c5c31)CNC4=O"
observed_value = "4.69 µM (active)"

[[record]]
compound_structure_string = "CNC(=O)c1nn(C)c2c1C(C)(C)Cc1cnc(Nc3ccc(N4CCN(C)CC4)cc3)nc1-2"
observed_value = "11.8 µM (active)"

[[record]]
compound_structure_string = "Cc1cc(N2CCOCC2)cc2[nH]c(-c3c(NC[C@@H](O)c4cccc(Cl)c4)cc[nH]c3=O)nc12"
observed_value = "0.935 µM (active)"

[[record]]
compound_structure_string = "CC(C)(C)c1cnc(CSc2cnc(NC(=O)C3CCNCC3)s2)o1"
observed_value = "0.935 µM (active)"

[[record]]
compound_structure_string = "COc1cccc2c(NCc3ccccc3)nc(-n3c(N)nc4ccccc43)nc12"
observed_value = "9.35 µM (active)"


----------
test: Quantitative High-Throughput drug screen in 47 multiple myeloma cell lines against the NCATS MIPE library collection: KMS27_JCRB cell viability assay (AID 1918970); details: KMS27 myeloma cells, CellTiter-Glo ATP viability, 48 h; series mostly up to 45.8 µM; note: nearly all actives have a fitted effect of over 30% in size
Inconclusive results are not listed. Activity calls are given as the source filed them. Calls follow the shape of the dose curve; as a rule, active = well fitted cell-killing curve with a large enough effect; inconclusive = small, poorly fitted or top-dose-only effect, or effect the other way; inactive = no such curve, though single readings can be large or run the other way.
Possible outcomes: true (1) = active, false (0) = inactive

[[record]]
compound = "Cc1ccc(C(N)=O)cc1Nc1nccc(-c2cn(C(C)C)c3cnccc23)n1"
category = "true (1)"

[[record]]
compound = "CC(C)c1cc(-c2n[nH]c(=O)n2-c2ccc3c(ccn3C)c2)c(O)cc1O"
category = "true (1)"

[[record]]
compound = "Cc1cc(C(=O)N2CCN(c3cccc(Cl)c3)CC2)n(-c2ccccc2)n1"
category = "true (1)"

[[record]]
compound = "CN1CCN(c2ccc3nc(-c4c(N)c5c(F)cccc5[nH]c4=O)[nH]c3c2)CC1"
category = "true (1)"

[[record]]
compound = "COC(=O)Nc1ccc(-c2nc(N3CCOCC3)c3cnn(C4CCN(Cc5cccnc5)CC4)c3n2)cc1"
category = "false (0)"

[[record]]
compound = "C=C1C(=CC=C2CCC[C@]3(C)[C@@H]([C@H](C)C=C[C@H](C)C(C)C)CC[C@@H]23)C[C@@H](O)C[C@@H]1O"
category = "true (1)"

[[record]]
compound = "CCC(=C(c1ccccc1)c1ccc(OCCN(C)C)cc1)c1ccccc1"
category = "true (1)"

[[record]]
compound = "CCCCCN(CCC12CC3CC(CC(C3)C1)C2)C(=O)NCCCc1ccncc1"
category = "true (1)"

[[record]]
compound = "C[C@]12CC[C@H](O)CC1=CCC1C2CC[C@]2(C)C(n3cnc4ccccc43)=CCC12 (some centres undefined)"
category = "false (0)"


----------
experiment: Identifying Small Molecule Inhibitors of Pancreatic Cancer Stem Cells (SN12C, Spheroid) (AID 1259360); settings: SN12C spheroid viability; series mostly up to 46.1 µM
Inconclusive results are not listed. Calls of active or inactive are those of the source. Calls follow the shape of the dose curve; as a rule, active = well fitted cell-killing curve with a large enough effect; inconclusive = small, poorly fitted or top-dose-only effect, or effect the other way; inactive = flat fitted curve, though single readings scatter.
Possible outcomes: yes (1) (active), no (0) (inactive)

[[record]]
compound = "CC1(C)CCC(c2ccc(Cl)cc2)=C(CN2CCN(c3ccc(C(=O)NS(=O)(=O)c4ccc(N[C@H](CCN5CCOCC5)CSc5ccccc5)c(S(=O)(=O)C(F)(F)F)c4)cc3)CC2)C1"
category = "yes (1)"

[[record]]
compound = "Cc1ccc(-c2ncn(-c3ccc(Nc4nccc(-c5cccc(N6CCOCC6)c5)n4)cc3)n2)cn1"
category = "yes (1)"

[[record]]
compound = "COc1ccc(OC)c(-c2nnc3ccc(-c4ccc(OC)c(O[C@@H]5CCOC5)c4)nn23)c1"
category = "yes (1)"

[[record]]
compound = "C=CC(=O)Nc1cc2c(Nc3ccc(F)c(Cl)c3)ncnc2cc1OCCCN1CCOCC1"
category = "yes (1)"

[[record]]
compound = "CC(C)=CCCC(C)=CCCC(C)=CCSc1ccccc1C(=O)O"
category = "no (0)"

[[record]]
compound = "CC=C1NC(=O)[C@H]2CSSCCC=C[C@H](CC(=O)N[C@H](C(C)C)C(=O)N2)OC(=O)[C@H](C(C)C)NC1=O"
category = "yes (1)"

[[record]]
compound = "Cc1ccc(C(=O)Nc2ccc(CN3CCN(C)CC3)c(C(F)(F)F)c2)cc1C#Cc1cnc2cccnn12"
category = "yes (1)"

[[record]]
compound = "C=C1C(=CC=C2CCCC3(C)[C@@H]([C@H](C)C=CC=CC(O)(CC)CC)CC[C@@H]23)C[C@@H](O)C[C@@H]1O (some centres not stated)"
category = "yes (1)"

[[record]]
compound = "CC(C)(C)OC(=O)Nc1ccc(-c2cc(C(=O)NCCCCCCC(=O)NO)no2)cc1"
category = "yes (1)"

[[record]]
compound = "O=C(NCCS(=O)(=O)c1ccc(C(F)(F)F)cn1)c1ccc(Cl)cc1"
category = "no (0)"

[[record]]
compound = "c1ccc2c(CCNc3ccc(Nc4ccncc4)cc3)c[nH]c2c1"
category = "yes (1)"

[[record]]
compound = "CC(=O)OCC(=O)[C@@]1(O)[C@H](C)C[C@H]2[C@@H]3C=C(C)C4=Cc5c(cnn5-c5ccccc5)C[C@]4(C)[C@@H]3[C@@H](O)C[C@@]21C"
category = "yes (1)"

[[record]]
compound = "Cc1cc(Nc2cc(N3CCN(C)CC3)nc(Sc3ccc(NC(=O)C4CC4)cc3)n2)n[nH]1"
category = "no (0)"

[[record]]
compound = "Nc1ccc(C(=O)c2cc3c(ccc4ccccc43)[nH]2)cc1"
category = "no (0)"

[[record]]
compound = "COc1cccc2nc(-c3cccs3)nc(NN3C(=O)C=C(C)C3=O)c12"
category = "yes (1)"

[[record]]
compound = "CN1CC[C@@H](c2c(O)cc(O)c3c(=O)cc(-c4ccccc4Cl)oc23)[C@@H](O)C1"
category = "yes (1)"

[[record]]
compound = "Cn1c(=O)n(-c2ccc(C(C)(C)C#N)cc2)c2c3cc(-c4cnc5ccccc5c4)ccc3ncc21"
category = "yes (1)"


----------
tested on: CASKI; experiment: Primary qHTS to identify gynecologic anti-cancer compounds using libraries of approved drugs and bioactive compounds (AID 1345084); conditions: Gynecologic cancer cell panel viability, ATPlite luminescence, 48 h; series mostly up to 57.5 µM; note: nearly all actives have a fitted effect of over 55% in size; note: potency is the fitted concentration of half-maximal effect
Records with an inconclusive call do not appear. Activity calls are given as the source filed them. The call rests on the fitted dose curve; in most records, active means well fitted cell-killing curve with a large enough effect; inconclusive means small, poorly fitted or top-dose-only effect, or effect the other way; inactive means flat fitted curve, though single readings scatter.
endpoint: Potency

[[record]]
molecule = "CCc1cc2c(cc1N1CCC(N3CCOCC3)CC1)C(C)(C)c1[nH]c3cc(C#N)ccc3c1C2=O"
tested_target = "CASKI"
endpoint = "Potency"
observed_value = "inactive"

[[record]]
molecule = "CNC(=O)c1nn(C)c2c1C(C)(C)Cc1cnc(Nc3ccc(N4CCN(C)CC4)cc3)nc1-2"
tested_target = "CASKI"
endpoint = "Potency"
observed_value = "15.8 µM (active)"

[[record]]
molecule = "Nc1cc(C(F)(F)F)c(-c2cc(N3CCOCC3)nc(N3CCOCC3)n2)cn1"
tested_target = "CASKI"
endpoint = "Potency"
observed_value = "3.55 µM (active)"

[[record]]
molecule = "CN(C1CCc2c(c3ccccc3n2CC(=O)O)C1)S(=O)(=O)c1ccc(F)cc1 (stereo not given)"
tested_target = "CASKI"
endpoint = "Potency"
observed_value = "inactive"

[[record]]
molecule = "CC(=O)Nc1nc(C)c(-c2ccc(Cl)c(S(=O)(=O)NCCO)c2)s1"
tested_target = "CASKI"
endpoint = "Potency"
observed_value = "12.6 µM (active)"


----------
assay: Quantitative High-Throughput drug screen in 47 multiple myeloma cell lines against the NCATS MIPE library collection: KMS26_JCRB cell viability assay (AID 1918975); conditions: KMS26 myeloma cells viability, CellTiter-Glo ATP, 48 h; series mostly up to 45.8 µM; note: nearly all actives have a fitted effect of over 45% in size; note: potency is the fitted concentration of half-maximal effect
Results filed as inconclusive are left out. Calls of active or inactive are those of the source. Calls come from the whole dose curve; as a rule, active = well fitted cell-killing curve with a large enough effect; inconclusive = small, poorly fitted or top-dose-only effect, or effect the other way; inactive = no such curve, though single readings can be large or run the other way.
endpoint: Potency

[[record]]
compound = "Nc1nc(-c2nn(Cc3ccccc3F)c3ncccc23)nc(N)c1N1CCOCC1"
observed_value = "inactive"

[[record]]
compound = "CC(C)(C)OC(=O)Nc1ccc(-c2cc(C(=O)NCCCCCCC(=O)NO)no2)cc1"
observed_value = "3.72 µM (active)"

[[record]]
compound = "CNC(=O)c1ccc(N2C(=S)N(c3cnc(C#N)c(C(F)(F)F)c3)C(=O)C23CCC3)cc1F"
observed_value = "1.48 µM (active)"

[[record]]
compound = "CCCCCN(CCC12CC3CC(CC(C3)C1)C2)C(=O)NCCCc1ccncc1"
observed_value = "20.9 µM (active)"

[[record]]
compound = "COc1ccc2c(c1)CC[C@@H](CN(C)CC(=O)O)[C@H]2c1ccccc1"
observed_value = "1.87 µM (active)"

[[record]]
compound = "CCC1=C[C@@H]2CN(C1)Cc1c([nH]c3ccccc13)[C@@](C(=O)OC)(c1cc3c(cc1OC)N(C)[C@@H]1[C@@](O)(C(=O)OC)[C@H](OC(C)=O)[C@]4(CC)C=CCN5CC[C@]31[C@@H]54)C2"
observed_value = "2.96 µM (active)"

[[record]]
compound = "Nc1ccccc1NC(=O)c1ccc(CNC(=O)OCc2cccnc2)cc1"
observed_value = "4.69 µM (active)"

[[record]]
compound = "COc1cc2c(Oc3ccc(-c4cnc(Nc5ccc(F)cc5)n(C)c4=O)cc3F)ccnc2cc1OCCCN1CCOCC1"
observed_value = "18.7 µM (active)"

[[record]]
compound = "C[C@@H](Oc1cc(-n2cnc3ccc(CN4CCN(C)CC4)cc32)sc1C(N)=O)c1ccccc1C(F)(F)F"
observed_value = "5.26 µM (active)"

[[record]]
compound = "O=C(CCCCCCNC(=O)c1cnc(N(c2ccccc2)c2ccccc2)nc1)NO"
observed_value = "5.26 µM (active)"

[[record]]
compound = "c1cc(-c2cnn3cc(-c4ccc(OCCN5CCCCC5)cc4)cnc23)ccn1"
observed_value = "16.6 µM (active)"

[[record]]
compound = "CN(C)c1nc(Cc2ccc(NC(=O)c3ccc4ccccc4c3)cc2)nc(Cl)c1CC(=O)O"
observed_value = "inactive"

[[record]]
compound = "C=C1C(=CC=C2CCCC3(C)[C@@H]([C@H](C)C=CC=CC(O)(CC)CC)CC[C@@H]23)C[C@@H](O)C[C@@H]1O (stereo partly specified)"
observed_value = "23.5 µM (active)"

[[record]]
compound = "CC(C)=CCCC(C)=CCCC(C)=CCSc1ccccc1C(=O)O"
observed_value = "4.18 µM (active)"

[[record]]
compound = "Cc1[nH]c2ccccc2c1CCNCc1ccc(C=CC(=O)NO)cc1"
observed_value = "0.0662 µM (active)"

[[record]]
compound = "CCC[C@H](NC(=O)C(C#N)=Cc1cccc(Br)n1)c1ccccc1"
observed_value = "1.48 µM (active)"

[[record]]
compound = "COc1cc2ncn(-c3cc(OCc4ccccc4C(F)(F)F)c(C(N)=O)s3)c2cc1OC"
observed_value = "18.7 µM (active)"

[[record]]
compound = "CC(C)(C)c1cnc(CSc2cnc(NC(=O)C3CCNCC3)s2)o1"
observed_value = "0.148 µM (active)"

[[record]]
compound = "CC(C)c1nn(-c2c(Cl)cccc2Cl)c2nc(Cc3ccc(OCCO)cc3)[nH]c(=O)c12"
observed_value = "0.148 µM (active)"

[[record]]
compound = "O=C(O)CCCc1c[nH]c2ccccc12"
observed_value = "inactive"

[[record]]
compound = "Cc1ccc(C(=O)Nc2ccc(CN3CCN(C)CC3)c(C(F)(F)F)c2)cc1C#Cc1cnc2cccnn12"
observed_value = "6.62 µM (active)"

[[record]]
compound = "Clc1cccc(-c2nnnn2Cc2cccnc2)c1Cl"
observed_value = "inactive"

[[record]]
compound = "COc1ccc(F)c(F)c1C(=O)c1cnc(NC2CCN(S(C)(=O)=O)CC2)nc1N"
observed_value = "2.64 µM (active)"

[[record]]
compound = "CCc1c2c(nc3ccc(O)cc13)-c1cc3c(c(=O)n1C2)COC(=O)[C@]3(O)CC"
observed_value = "2.35 µM (active)"

[[record]]
compound = "Cc1cccc(C=NNc2cc(N3CCOCC3)nc(OCCc3ccccn3)n2)c1"
observed_value = "0.118 µM (active)"

[[record]]
compound = "Cc1ccc(C(N)=O)cc1Nc1nccc(-c2cn(C(C)C)c3cnccc23)n1"
observed_value = "10.5 µM (active)"

[[record]]
compound = "C[C@@H](Oc1cc(-c2cnn(C3CCNCC3)c2)cnc1N)c1c(Cl)ccc(F)c1Cl"
observed_value = "14.8 µM (active)"

[[record]]
compound = "COc1cc2c(cc1-c1c(C)noc1C)ncc1[nH]c(=O)n([C@H](C)c3ccccn3)c12"
observed_value = "0.0264 µM (active)"

[[record]]
compound = "N#Cc1c(O)c2c(-c3ccc(-c4ccccc4O)cc3)csc2[nH]c1=O"
observed_value = "inactive"

[[record]]
compound = "COC(=O)Nc1nc2ccc(C(=O)c3ccc(F)cc3)cc2[nH]1"
observed_value = "5.26 µM (active)"

[[record]]
compound = "O=C(c1ccc(Nc2nccc(-c3cc4ccccc4s3)n2)cc1)N1CCC(N2CCCC2)CC1"
observed_value = "16.6 µM (active)"

